B1: VPS39 (parent)
chain: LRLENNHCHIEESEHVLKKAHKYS

Variants of: B1
test: protein stability index of a GFP-peptide fusion (GPS, HEK-293T) (PSI 1-6); higher = more stable;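 also: lentivirally expressed fusions sorted by FACS into six bins by GFP to DsRed ratio, PSI derived from sequencing read proportions per bin multiplied by bin number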
measurementContext: c terminus: a fixed tail appended
Please go through the items and note down their protein stability index.
Numbers only.

Okay, here is my list. What is protein stability index for each of these?
1. S13D
2. C8W
3. S13G

Completion:
1: 2.49; 2: 2.4; 3: 2.56

Record protein stability index for all entries; do not skip any.
1. H21K
2. E12L
3. K19T
4. K18N
5. K22W

Completion:
2.4
3.66
2.2
2.6
1.84

# map each variant to its protein stability index
1. L1W
2. E11M
3. A20L

Completion:
1: 3.14; 2: 2.31; 3: 1.71
